Hey, just so you know, these numbers are from patent US9994594B2.

Target: arginase II (ARG II) (Homo sapiens, UniProt P78540)
Experiment: Inhibition of arginase II, spectrophotometric urea assay at 530 nm
Format: biochemical
Conditions: Formula II compounds, Table 2-A; read-out: Potency (ARG)
Where a name gives a salt, the structure may show the parent alone.
result type: IC50

The cases that follow already have their IC50 on record.
N[C@H]1CC[C@@H]([C@@](N)(CCCCB(O)O)C(=O)O)C1 [17-A, dihydrochloride] :: 0.0001 to 0.25 µM
NC(CCCCB(O)O)(C(=O)O)C1CCN(Cc2ccccc2N2CCOCC2)CC1 (centres unmarked) [Example 54-A, dihydrochloride] :: 0.251 to 1 µM
NC(CCCCB(O)O)(C(=O)O)C1CCN(Cc2ccc(F)c3ccccc23)CC1 (centres unmarked) [Example 51-A] :: 0.251 to 1 µM
NC(CCCCB(O)O)(C(=O)O)C1CCN(CCc2ccccc2)CC1 (centres unmarked) [Example 41-A] :: 0.0001 to 0.25 µM
CC1(C)CCC(N2CCC(C(N)(CCCCB(O)O)C(=O)O)CC2)CC1 (centres unmarked) [25-A, dihydrochloride] :: 0.251 to 1 µM

Reported IC50 ( NC(CCCCB(O)O)(C(=O)O)C1CCN(Cc2ccc(Cl)c(F)c2)CC1 (centres unmarked) [Example 49-A] ) = 0.0001 to 0.25 µM

Reported IC50 ( N[C@H]1CC[C@H]([C@](N)(CCCCB(O)O)C(=O)O)C1 [16-A, dihydrochloride] ) = 0.0001 to 0.25 µM

Reported IC50 ( NC(CCCCB(O)O)(C(=O)O)C1CCN(Cc2ccc(F)cc2)CC1 (centres unmarked) [Example 94-A, dihydrochloride] ) = 0.251 to 1 µM

====

Target: arginase II (ARG II) (Homo sapiens, UniProt P78540)
Sequence (P78540 23-354): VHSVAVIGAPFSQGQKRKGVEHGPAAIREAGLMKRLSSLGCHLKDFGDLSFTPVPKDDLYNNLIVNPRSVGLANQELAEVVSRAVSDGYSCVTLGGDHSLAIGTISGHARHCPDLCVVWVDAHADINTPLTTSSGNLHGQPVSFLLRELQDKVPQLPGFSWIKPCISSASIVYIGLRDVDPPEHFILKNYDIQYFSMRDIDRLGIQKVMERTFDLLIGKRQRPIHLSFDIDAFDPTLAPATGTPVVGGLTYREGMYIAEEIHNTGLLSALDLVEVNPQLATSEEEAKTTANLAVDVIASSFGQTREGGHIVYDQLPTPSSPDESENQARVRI
Experiment: Inhibition of arginase II, spectrophotometric urea assay at 530 nm
Assay type: biochemical
Settings: Formula II compounds, Table 2-A; read-out: Potency (ARG)
Where a name gives a salt, the structure may show the parent alone.
result type: IC50

Reported IC50 ( NC(CCCCB(O)O)(C(=O)O)C1CCN(CCc2ccc(F)c(F)c2)CC1 (stereo not shown) [Example 59-A, dihydrochloride] ) = 0.0001 to 0.25 µM

Reported IC50 ( NC(CCCCB(O)O)(C(=O)O)C1CCN(c2ncc(C(F)(F)F)cc2Cl)CC1 (stereo not shown) [10-A, dihydrochloride] ) = 2 to 5 µM

Reported IC50 ( NC(CCCCB(O)O)(C(=O)O)C1CCN(Cc2ccc(OC(F)(F)F)cc2)CC1 (stereo not shown) [Example 100-A, dihydrochloride] ) = 0.0001 to 0.25 µM

Reported IC50 ( NC(CCCCB(O)O)(C(=O)O)C1CCN(C(=O)c2ccccc2)CC1 (stereo not shown) [30-A, hydrochloride] ) = 2 to 5 µM

Reported IC50 ( NC(CCCCB(O)O)(C(=O)O)[C@H]1CCCN(Cc2ccc(Cl)c(Cl)c2)C1 (stereo partly shown) [Example 69-A, dihydrochloride] ) = 1 to 2 µM

Reported IC50 ( NC(CCCCB(O)O)(C(=O)O)C1CCN(Cc2ccccc2)CC1 (stereo not shown) [Example 87-A, dihydrochloride] ) = 0.0001 to 0.25 µM

Reported IC50 ( NC(CCCCB(O)O)(C(=O)O)C1CCN(Cc2ccc(Oc3ccc(Cl)c(Cl)c3)cc2)CC1 (stereo not shown) [Example 64-A, dihydrochloride] ) = 0.0001 to 0.25 µM
